Just for reference, paper PMC2897705 is where these values come from.

molecular target: LRRK2 (Mus musculus, UniProt Q5S006); experiment: Radiometric TLC assay of LRRK2-catalyzed GTP hydrolysis; format: biochemical; details: read-out: apparent dissociation constant Ki,app; 200 µM GTP
Sequence (Q5S006 whole entry): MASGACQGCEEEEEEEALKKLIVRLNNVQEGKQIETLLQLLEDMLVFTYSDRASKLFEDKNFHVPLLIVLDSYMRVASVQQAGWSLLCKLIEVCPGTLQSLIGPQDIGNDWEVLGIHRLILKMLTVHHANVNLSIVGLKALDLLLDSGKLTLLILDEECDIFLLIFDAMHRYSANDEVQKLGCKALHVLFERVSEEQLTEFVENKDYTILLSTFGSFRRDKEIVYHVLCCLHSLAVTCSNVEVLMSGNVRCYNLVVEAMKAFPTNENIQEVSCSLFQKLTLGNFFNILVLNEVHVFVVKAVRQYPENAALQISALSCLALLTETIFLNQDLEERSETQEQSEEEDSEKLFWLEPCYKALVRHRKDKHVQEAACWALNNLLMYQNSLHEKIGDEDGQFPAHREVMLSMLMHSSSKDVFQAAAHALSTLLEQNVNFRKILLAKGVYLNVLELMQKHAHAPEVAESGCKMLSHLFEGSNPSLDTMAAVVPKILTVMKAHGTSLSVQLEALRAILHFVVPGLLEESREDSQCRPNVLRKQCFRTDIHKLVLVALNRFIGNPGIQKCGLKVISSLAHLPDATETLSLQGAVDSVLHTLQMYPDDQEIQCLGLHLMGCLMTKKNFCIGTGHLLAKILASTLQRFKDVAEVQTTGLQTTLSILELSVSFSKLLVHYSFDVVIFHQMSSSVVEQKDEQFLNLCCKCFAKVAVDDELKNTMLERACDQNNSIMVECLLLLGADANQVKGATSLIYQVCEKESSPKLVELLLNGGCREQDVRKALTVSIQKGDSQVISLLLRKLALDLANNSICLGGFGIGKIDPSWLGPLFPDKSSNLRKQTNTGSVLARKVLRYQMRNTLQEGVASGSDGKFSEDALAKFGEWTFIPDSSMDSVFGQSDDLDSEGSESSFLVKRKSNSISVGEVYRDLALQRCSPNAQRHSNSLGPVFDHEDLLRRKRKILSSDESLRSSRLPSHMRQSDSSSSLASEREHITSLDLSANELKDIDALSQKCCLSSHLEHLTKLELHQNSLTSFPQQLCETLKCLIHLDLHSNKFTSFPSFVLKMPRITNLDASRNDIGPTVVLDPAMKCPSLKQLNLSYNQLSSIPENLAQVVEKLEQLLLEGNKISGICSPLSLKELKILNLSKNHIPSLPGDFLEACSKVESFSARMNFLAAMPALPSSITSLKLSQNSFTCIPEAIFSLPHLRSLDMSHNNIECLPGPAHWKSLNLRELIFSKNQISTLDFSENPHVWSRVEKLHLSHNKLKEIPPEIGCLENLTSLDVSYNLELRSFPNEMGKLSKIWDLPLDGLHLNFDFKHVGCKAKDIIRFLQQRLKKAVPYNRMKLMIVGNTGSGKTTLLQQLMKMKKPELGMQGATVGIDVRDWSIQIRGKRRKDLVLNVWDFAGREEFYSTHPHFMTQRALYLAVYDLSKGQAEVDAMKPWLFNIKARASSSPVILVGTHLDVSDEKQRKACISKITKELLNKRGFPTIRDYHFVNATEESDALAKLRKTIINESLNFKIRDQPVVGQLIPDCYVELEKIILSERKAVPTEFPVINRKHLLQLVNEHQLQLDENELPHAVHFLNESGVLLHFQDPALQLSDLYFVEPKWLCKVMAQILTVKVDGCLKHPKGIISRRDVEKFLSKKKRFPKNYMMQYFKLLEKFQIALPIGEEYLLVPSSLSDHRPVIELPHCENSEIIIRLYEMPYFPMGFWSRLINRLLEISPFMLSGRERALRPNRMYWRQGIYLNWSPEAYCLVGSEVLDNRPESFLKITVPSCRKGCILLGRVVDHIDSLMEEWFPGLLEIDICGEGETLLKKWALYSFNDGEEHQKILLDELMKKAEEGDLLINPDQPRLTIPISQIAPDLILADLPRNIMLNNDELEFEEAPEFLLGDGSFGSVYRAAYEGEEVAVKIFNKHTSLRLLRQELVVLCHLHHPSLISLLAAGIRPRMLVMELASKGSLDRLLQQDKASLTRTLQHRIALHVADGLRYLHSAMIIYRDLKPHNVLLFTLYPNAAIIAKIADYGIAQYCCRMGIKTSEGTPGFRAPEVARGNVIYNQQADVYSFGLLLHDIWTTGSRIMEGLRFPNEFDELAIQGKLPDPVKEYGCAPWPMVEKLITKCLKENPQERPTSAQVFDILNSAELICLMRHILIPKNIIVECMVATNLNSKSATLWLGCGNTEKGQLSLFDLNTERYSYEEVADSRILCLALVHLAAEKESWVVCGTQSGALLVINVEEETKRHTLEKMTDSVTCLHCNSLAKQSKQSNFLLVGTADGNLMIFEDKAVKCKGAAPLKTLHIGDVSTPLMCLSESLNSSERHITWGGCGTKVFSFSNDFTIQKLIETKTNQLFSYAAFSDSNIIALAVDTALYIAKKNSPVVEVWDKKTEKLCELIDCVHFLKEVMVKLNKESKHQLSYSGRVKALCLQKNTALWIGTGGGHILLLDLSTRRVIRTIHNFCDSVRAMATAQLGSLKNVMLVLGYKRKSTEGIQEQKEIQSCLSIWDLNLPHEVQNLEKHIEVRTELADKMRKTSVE
pKi: −log10 of the molar value.
The following compounds are shown together with reported pKi values.
propertyMeasured: pKi

[
  {
    "compound": "Nc1nc2c(ncn2[C@@H]2O[C@H](COP(=O)(O)OP(=O)(O)O)[C@@H](O)[C@H]2O)c(=O)[nH]1 [GDP]",
    "experimentalValue": 4.01
  },
  {
    "compound": "Nc1nc2c(ncn2[C@@H]2O[C@H](COP(=O)(O)O)[C@@H](O)[C@H]2O)c(=O)[nH]1 [GMP]",
    "experimentalValue": 2.54
  },
  {
    "compound": "Nc1ncnc2c1ncn2[C@@H]1O[C@H](COP(=O)(O)OP(=O)(O)O)[C@@H](O)[C@H]1O [ADP]",
    "experimentalValue": 3.22
  }
]
